- Tested on: Coxsackie A21 virus (Cox A21)
- TEST_METHOD_NOTES: Tissue culture antiviral test (HeLa cells), Cox A21
- Type: cell-based
- CONDITION_SUMMARY: 48 and 72 hours post-treatment, read-out: Lowest concentration necessary to cause a 50 percent reduction in cytopathic effect, Cox A21
Reported EC50 is given for each of the following molecules.

MOLECULE	MEASUREMENT_TARGET	QUANTITY_UNIT	EC50
O=S(=O)(c1ccccc1)c1ccc(Oc2ccc(Cl)c(Cl)c2)cc1 [Example 10]	Coxsackie A21 virus (Cox A21)	µg/mL	6.25
CS(=O)(=O)c1ccc(Oc2ccc(Cl)cc2)cc1 [Example 2]	Coxsackie A21 virus (Cox A21)	µg/mL	0.625
CS(=O)(=O)c1ccc(Oc2ccc(Cl)c(Cl)c2)cc1 [Example 1]	Coxsackie A21 virus (Cox A21)	µg/mL	2.5
CS(=O)(=O)c1ccc(Oc2ccc(Cl)c(Cl)c2)c(N)c1 [Example 16]	Coxsackie A21 virus (Cox A21)	µg/mL	6.25
CS(=O)(=O)c1ccc(Oc2ccc(Cc3ccccc3)cc2)cc1 [Example 20]	Coxsackie A21 virus (Cox A21)	µg/mL	2.5
